Each entry below carries its reported EC50.
Biological target: T1, Placenta Growth Factor (PlGF), human (human, UniProt P49763 21-149)
T1 chain: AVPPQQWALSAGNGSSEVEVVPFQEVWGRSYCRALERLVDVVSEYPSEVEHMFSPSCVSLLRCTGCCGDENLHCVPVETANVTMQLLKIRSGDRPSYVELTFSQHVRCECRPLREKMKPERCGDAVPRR
Experiment: ELISA
property: EC50 (nM)

binder	property	value_observed
HC 6/SLC 4 (antibody) chain 1: GQGTLVTVSSASTKGPQPVLHQPPAMSSALGTTIRLTCTLRNDHDIGVYSVYWYQQRPGHPPRFLLRYFSQSDKSQGPQVPPRFSGSKDVARNRGYLSISELQPEDEAMYYCAMGARSRCWPRGFQSKHNSVTHVFGSGTQLTVLSQPKATPSVTLFPPSSEELQANKATLVCLMNDFYPGILTVTWKADGTPITQGVEMTTPSKQSNNKYAASSYLSLTPEQWRSRRSYSCQVMHEGSTVEKTVAPAECS chain 2: MSWAPVLLMLFVYCTGCGPQPVLHQPPAMSSALGTTIRLTCTLRNDHDIGVYSVYWYQQRPGHPPRFLLRYFSQSDKSQGPQVPPRFSGSKDVARNRGYLSISVTHVFGSGTQLTVLSQPKQVQLVQ	EC50	0.191
HC 6/SLC 15 (antibody) chain 1: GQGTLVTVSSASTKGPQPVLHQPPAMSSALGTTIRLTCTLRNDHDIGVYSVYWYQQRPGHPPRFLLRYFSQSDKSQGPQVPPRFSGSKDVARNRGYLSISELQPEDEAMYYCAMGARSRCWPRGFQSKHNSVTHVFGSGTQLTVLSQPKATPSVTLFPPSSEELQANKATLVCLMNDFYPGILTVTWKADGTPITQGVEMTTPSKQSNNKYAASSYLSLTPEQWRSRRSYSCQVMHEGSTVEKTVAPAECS chain 2: MSWAPVLLMLFVYCTGCGPQPVLHQPPAMSSALGTTIRLTCTLRNDHDIGVYSVYWYQQRPGHPPRFLLRYFSQSDKSQGPQVPPRFSGSKDVARNRGYLSISVTHVFGSGTQLTVLSQPKATPSVTGGGGSQVQLVQ	EC50	0.046
